MEASUREMENT TARGET: Human recombinant Acetyl-CoA Carboxylase 1 (ACC1) (Homo sapiens)
TEST DETAILS: Assay X: ACC1 inhibition, inorganic phosphate (malachite green)
Format: biochemical
CONDITIONS USED: Assay X: 37° C., 1.5 h, 5 min pre-incubation
pIC50: −log10 of the molar value.
PROPERTY: pIC50

COMPOUND | REPORTED
CC(C#N)OC(=O)NC[C@H]1CC[C@H](CNC(=O)c2cc(-c3ccc(N4CCN(C)CC4)nc3)nc3ccccc23)CC1 (some centres unmarked) | 5.32
CC(C)(C)OC(=O)NC[C@H]1CC[C@H](CNC(=O)c2cc(N3CCC(CN4CCOCC4)CC3)nc3ccccc23)CC1 | 5.48

(I) Cc1cnc(CNc2ccc(-c3cc(C(=O)NC[C@H]4CC[C@H](CNC(=O)OC(C)(C)C)CC4)c4ccccc4n3)cn2)cn1
(II) CC(C)(C)OC(=O)NC[C@H]1CC[C@H](CNC(=O)c2cc(-c3ccc(N4CCC[C@H]4C(N)=O)nc3)nc3ccccc23)CC1
(III) O=C(NC[C@H]1CC[C@H](CNC(=O)c2cc(-c3ccc(NCCO)nc3)nc3ccccc23)CC1)O[C@H]1CCOC1
(IV) CC(C)(C)OC(=O)NC[C@H]1CC[C@H](CNC(=O)c2cc(-c3ccc(N4CCOC(CO)C4)nc3)nc3ccccc23)CC1 (relative stereo)
[in] Given 4 compounds, produce a descending ranking by pIC50. Give the labels in the order specified.
[out] IV, I, II, III

(I) CN(C)CCC1CCN(c2cc(C(=O)NC[C@H]3CC[C@H](CNC(=O)OCC(C)(C)C)CC3)c3ccccc3n2)CC1
(II) CN(C)CCOC1CCN(c2cc(C(=O)NC[C@H]3CC[C@H](CNC(=O)OC(C)(C)C)CC3)c3ccccc3n2)CC1
[in] Smaller pIC50 value? Options are I and II When you have decided, please share the label of that item.
[out] II

(a) CC(C)(C)OC(=O)NC[C@H]1CC[C@H](CNC(=O)c2cc(N3CCC(CCN4CCC(O)C4)CC3)nc3ccccc23)CC1 (relative stereo)
(b) CC(C)(C)OC(=O)NC[C@H]1CC[C@H](CNC(=O)c2cc(-c3ccc(N(CCO)CCO)nc3)nc3ccccc23)CC1
(c) CC(C)(C)OC(=O)NC[C@H]1CC[C@H](CNC(=O)c2c(N)sc3ccccc23)CC1
(d) CN(C)CCOC1CN(c2cc(C(=O)NC[C@H]3CC[C@H](CNC(=O)OC(C)(C)C)CC3)c3ccccc3n2)C1
(e) CN(C)[C@H]1CCN(c2ccc(-c3cc(C(=O)NC[C@H]4CC[C@H](CNC(=O)OC(C)(C)C)CC4)c4ccccc4n3)cn2)C1
[in] Hi! Can you put these in order of pIC50, lowest number first? Give the labels in the order specified.
[out] c, d, a, b, e
(c: 5.04, d: 5.35, a: 5.88, b: 6.32, e: 6.66)

(a) CC(C)(C)OC(=O)NC[C@H]1CC[C@H](CNC(=O)c2cc(N3CCC(CCN4CCCC4)CC3)nc3ccccc23)CC1
(b) CN1CCN(CCOc2ccc(-c3cc(C(=O)NC[C@H]4CC[C@H](CNC(=O)OC(C)(C)C)CC4)c4ccccc4n3)cn2)CC1
(c) CC(C)(C)OC(=O)NC[C@H]1CC[C@H](CNC(=O)c2cc(N3CCN(C(=O)CO)CC3)nc3ccccc23)CC1
(d) CC(C)(C)OC(=O)NC[C@H]1CC[C@H](CNC(=O)c2cc(-c3ccc(OCN4CCCC4=O)nc3)nc3ccccc23)CC1
[in] Given 4 compounds, produce a descending ranking by pIC50. Give the labels in the order specified.
[out] a, b, d, c
(a: 6.15, b: 5.74, d: 5.37, c: 5.02)

(A) CC(C)(C)OC(=O)NC[C@H]1CC[C@H](CNC(=O)c2cc(-c3ccc(NCC(O)CO)nc3)nc3ccccc23)CC1 (relative stereo)
(B) CC(C)(C)OC(=O)NC[C@H]1CC[C@H](CNC(=O)c2cc(-c3ccc(N)nc3)nc(-c3cccc(CN)c3)c2)CC1
(C) CN1CCN(c2ccc(-c3cc(C(=O)NC[C@H]4CC[C@H](CNC(=O)OCCn5cccn5)CC4)c4ccccc4n3)cn2)CC1
[in] Hi! Can you put these in order of pIC50, lowest number first? Give the labels in the order specified.
[out] C, A, B
(C: 5.10, A: 6.06, B: 6.59)

(1) COC1CN(CCC2CCN(c3cc(C(=O)NC[C@H]4CC[C@H](CNC(=O)OC(C)(C)C)CC4)c4ccccc4n3)CC2)C1
(2) CC(C)(C)OC(=O)NC[C@H]1CC[C@H](CNC(=O)c2cc(-c3ccc(N4CCC(CO)CC4)nc3)nc3ccccc23)CC1
[in] Smaller pIC50 value? Options are 1 and 2 When you have decided, please share the label of that item.
[out] 1
(1: 6.04, 2: 6.52)

(I) CC(C)(C)OC(=O)NC[C@H]1CC[C@H](CNC(=O)c2cc(-c3ccc(N4CCC(O)CC4)nc3)nc3ccccc23)CC1
(II) CC(C)(C)OC(=O)NC[C@H]1CC[C@H](CNC(=O)c2cc(N3CCC(CCNCCF)CC3)nc3ccccc23)CC1
[in] For this pair, I and II , which shows a numerically higher pIC50? When you have decided, please share the label of that item.
[out] I
